Test: yeast display, Sf9 membrane polyspecificity reagent, FACS + sequencing; frameworks hold sequencing errors
recorded_endpoint: polyreactivity (PSR sort gate)

As a guide, the following entries are already answered.
# entry_sequence, polyreactivity (PSR sort gate)
measured = [
    ("QVQLVESGGGLVQAGGSLRISCAASGSTFKGYAMGWYRQSPGKERELVAAISRSGTRTYYADSVKVRFTISRDTAKNTVYLQMNSLNPEDTAVYSCNKDTGYIAHDNENGRDYWGQGTQVTVSS", "low polyreactivity"),
    ("QVQLVESGGGLVQAGGSLRLSCAASGSIFVNYAMGWYRQAPGKERELVAAITSRGTRTYYADSVKGRFTISRDNAKNTVYLQMNSLKPEDTAVYYCAAKQVSRGVAAYDYWGQGTQVTVSS", "high polyreactivity"),
    ("QVQLVESGGVLVQAGGSLRLSCAASGSTFYGYAMGWYRQAPAKERELVAAITRSGGSTYYADSVKGRFTISRDNAKNTVYLQMNSLKPEDTAVYYCARQDRDTYYHRYYYGGQGTQVTVSS", "high polyreactivity"),
    ("QVQLVESGGGLVQAGGSLRLSCAASGRIFRYYAMGWYRQAPGKERELVAAITWSGGSTYYADSVKGRFTISRDNAKNTVYLQMNSLKPEDTAVYYCNAKSYQPFHGDYWGQGTQVTVSS", "low polyreactivity"),
]

// next item, polyreactivity (PSR sort gate) requested
Problem: Name the recorded polyreactivity (PSR sort gate) of the item QVKLVESGGGLVQAGGSLRLSCAASGRTFYRNTMGWYRQAPGKERELVAAITRSGGSTYYADSVKGRFTISRDNAKNTVYLQMNRLKPEDTAVYYCARPKIHGETRSYGYGYWGQGTQVTVSS in your answer.
Solution: high polyreactivity
